Values compiled from patent US20250197488A1.

Biological target: T1, human IL-11 (AAH12506.1, Pro22-Leu199) (human, UniProt P20809 22-199)
T1 construct: The range Pro22-Leu199 counts on AAH12506.1; The Octet runs say only 'human IL-11'; also called hIL-11
T1 chain: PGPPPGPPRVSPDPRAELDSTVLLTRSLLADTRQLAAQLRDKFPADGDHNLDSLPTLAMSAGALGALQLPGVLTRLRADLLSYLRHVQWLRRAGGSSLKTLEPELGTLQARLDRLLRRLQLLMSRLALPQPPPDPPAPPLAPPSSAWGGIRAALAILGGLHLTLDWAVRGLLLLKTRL
Assay: BLI (Octet), antibody captured, human IL-11 in solution
# kon values compiled below

[
  {
    "binder": "hz18A10-VHm6 + hz18A10-VLm19 (antibody, V domains shown, Constant regions not restated for this antibody) VH: EVQLVQSGAEVKKPGASVKVSCKASGYTFNHYDMDWVRQAPGQGLEWMGTIYPGNGDTSYNQKFKGRVTMTRDTSTSTVYMELSSLRSEDTAVYYCARGDLYALDYWGQGTLVTVSS VL: DIQMTQSPSSLSASVGDRVTITCKASQSVYRDVAWYQQKPGKAPKLLIYSASNRYTGVPSRFSGSGSGTDFTFTISSLQPEDIATYYCQHDYSSPYTFGQGTKLEIK",
    "kon": "911000 M⁻¹ s⁻¹"
  },
  {
    "binder": "hz18A10-VHm1 + hz18A10-VLm11 (antibody, V domains shown, Constant regions not restated for this antibody) VH: EVQLVQSGAEVKKPGASVKVSCKASGYTFTTYNMDWVRQAPGQGLEWMGTIYPGNGDTSYNQKFKGRVTMTRDTSTSTVYMELSSLRSEDTAVYYCARGDLHFLDYWGQGTLVTVSS VL: DIQMTQSPSSLSASVGDRVTITCKASQSVSNDVAWYQQKPGKAPKLLIYRASNRYTGVPSRFSGSGSGTDFTFTISSLQPEDIATYYCQHDYSSPYTFGQGTKLEIK",
    "kon": "348000 M⁻¹ s⁻¹"
  },
  {
    "binder": "hz18A10-VH + hz18A10-VLm4 (antibody, V domains shown, Constant regions not restated for this antibody) VH: EVQLVQSGAEVKKPGASVKVSCKASGYTFTTYNMDWVRQAPGQGLEWMGTIYPGNGDTSYNQKFKGRVTMTRDTSTSTVYMELSSLRSEDTAVYYCARGDLYALDYWGQGTLVTVSS VL: DIQMTQSPSSLSASVGDRVTITCKASQFVSNDVAWYQQKPGKAPKLLIYSASNRYTGVPSRFSGSGSGTDFTFTISSLQPEDIATYYCQHDYSSPYTFGQGTKLEIK",
    "kon": "760000 M⁻¹ s⁻¹"
  },
  {
    "binder": "hz18A10-VHm15 + hz18A10-VLm19 (antibody, V domains shown, Constant regions not restated for this antibody) VH: EVQLVQSGAEVKKPGASVKVSCKASGYTFTHYSMDWVRQAPGQGLEWMGTIYPGNGDTSYNQKFKGRVTMTRDTSTSTVYMELSSLRSEDTAVYYCARGDLYALDYWGQGTLVTVSS VL: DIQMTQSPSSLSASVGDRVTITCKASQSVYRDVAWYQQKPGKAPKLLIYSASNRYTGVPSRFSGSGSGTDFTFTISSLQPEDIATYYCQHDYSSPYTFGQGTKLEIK",
    "kon": "760000 M⁻¹ s⁻¹"
  },
  {
    "binder": "hz18A10-VHm1 + hz18A10-VLm9 (antibody, V domains shown, Constant regions not restated for this antibody) VH: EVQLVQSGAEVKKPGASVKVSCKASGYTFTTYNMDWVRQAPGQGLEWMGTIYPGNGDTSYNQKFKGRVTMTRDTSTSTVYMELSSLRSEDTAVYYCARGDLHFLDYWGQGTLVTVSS VL: DIQMTQSPSSLSASVGDRVTITCKASQSVYSDVAWYQQKPGKAPKLLIYSASNRYTGVPSRFSGSGSGTDFTFTISSLQPEDIATYYCQHDYSSPYTFGQGTKLEIK",
    "kon": "479000 M⁻¹ s⁻¹"
  }
]
